Test: Liver function, ALT, AST, bilirubin in cynomolgus monkeys (Example 45)
Assay type: in vivo
Conditions: plasma; day 85; escalating dose regimen
Field 'label' (enum: TRUE / FALSE). Set to TRUE when AST is strictly under 50 IU/L; else FALSE.

As a guide, the following entries are already answered.
substance="ISIS 416850: MOE gapmer, nucleobases 1275 to 1318 of SEQ ID NO: 1 (Table 8) (antisense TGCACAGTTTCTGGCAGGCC; MOE gapmer, wing and gap sizes not given here)" class_label=FALSE
substance="ISIS 416838: MOE gapmer, nucleobases 1018 to 1042 of SEQ ID NO: 1 (Table 6) (antisense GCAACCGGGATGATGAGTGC; MOE gapmer, wing and gap sizes not given here)" class_label=TRUE

Continue with the next substance.
Q: Bench note: check whether ISIS 416864: MOE gapmer, nucleobases 1275 to 1318 of SEQ ID NO: 1 (Table 8) (antisense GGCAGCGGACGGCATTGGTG; MOE gapmer, wing and gap sizes not given here) shows AST below 50 IU/L
Ans: FALSE
